- Test system: IGROV1 ovarian
- METHOD: NCI tumour cell line growth inhibition, 48 h
MEASURED ENDPOINT: TGI

Worked cases, TGI given:
CCOC(=O)/C(C#N)=c1/s/c(=C(\O)N/N=C/c2ccc(OC)cc2)c(=N)n1-c1ccccc1 | > 100 µM
Cc1cc(Br)ccc1N=NC1C(=O)ON=C1c1ccccc1 (stereo not given) | > 100 µM
C[C@H]1CC(=O)C[C@@H]2CC[C@@H]3[C@H](CC[C@]4(C)C(OC(=O)c5cccc6c(=O)c7ccccc7[nH]c56)CC[C@@H]34)[C@]21C (stereo not given in full) | > 100 µM
CC12CCC(C(=Nc3ccc([N+](=O)[O-])cc3)C1=O)C2(C)C (stereo not given) | 57.3 µM
COC(=O)C#CC1(O)C=CC(=O)C=C1 | 2.85 µM
N#CN1CCC2CC(=O)CCC2C1 (stereo not given) | > 100 µM
COC(=O)[C@@H](C)C[C@H](Cc1ccccc1)NC(=O)c1nc([C@@H](C[C@H](C(C)C)N(C)C(=O)[C@@H](NC(=O)[C@H]2CC(=O)CCN2C)C(C)C)OC(C)=O)sc1C(C)C | > 13.5 µM
COC(=O)c1nc2n(n1)-c1ccccc1C(=O)N(Cc1ccccc1)C2 | > 100 µM

Tell me TGI reported for COc1cc(Nc2nc(NS(=O)(=O)c3cc(C)c(Cl)cc3S)n[nH]2)cc(OC)c1OC
> 100 µM

Tell me measured TGI for COc1cc(OC)cc(Oc2nc3ccc(C(F)(F)F)cc3nc2-c2ccccc2)c1 please.
> 100 µM

###

- Test system: SR leukemia
- METHOD: NCI tumour cell line growth inhibition, 48 h
MEASURED ENDPOINT: TGI

The following molecules have reported results that may help.
Cn1c2ccccc2n2c3ccccc3c3nnc(N)c-3c12 | > 100 µM
O=[N+]([O-])c1cccc(-c2ccc([C@H]3CC(c4ccc(Cl)cc4)=NN3)o2)c1 | 32.7 µM
CCn1c(O)c(C(=O)Nc2cccs2)c(=O)n(CC)c1=S | > 100 µM
CCOc1cc(NC(C)=O)ccc1C(=O)NN1C(=O)/C(=C/c2ccc(Cl)cc2)N=C1c1ccccc1 | > 100 µM
C/C(=N\NC(N)=O)C(CN1CCOCC1)C(c1ccccc1)c1c(O)c2ccccc2oc1=O (stereo unspecified) | > 100 µM
COc1ccccc1Nc1nc(N)nc(N)c1N | 45.6 µM

Give the value of TGI reported for the following: CCCCc1c2c([n+]([O-])c3c1CCCC3)CCCC2
> 100 µM

Tell us which TGI value is on record for COc1cccc(-c2cc(-c3ccc(Nc4nc(Nc5ccc(Cl)cc5)nc(Nc5ccc(Cl)cc5)n4)cc3)nc(N)c2C#N)c1
4.22 µM

Please supply the value of reported TGI for the item CC(C)OP(=O)(OC(C)C)C(=Nc1ccc(N=C(NNc2ccc([N+](=O)[O-])cc2)P(=O)(OC(C)C)OC(C)C)cc1)NNc1ccc([N+](=O)[O-])cc1
> 100 µM

Please give the documented TGI of CC(C)=CCN1c2ccccc2[C@@]2(CC=C(C)C)CCN(C)[C@@H]12
> 100 µM

Tell me its TGI given CCOC(=O)c1c2ccccc2n2c(=O)n(-c3ccccc3)nnc12 as the entry.
> 25.1 µM

Check the records and state TGI for CC(C)OC(=O)OCOP(=O)(OCOC(=O)OC(C)C)C1CCCN(O)C1=O (stereo unspecified)
> 100 µM

###

- Tested on: SK-OV-3 ovarian
- METHOD: NCI tumour cell line growth inhibition, 48 h
Property: TGI; scope: individual molecules
Could you give me the number in µM? Just the number is fine.

CC(=O)Nc1ccc(S(=O)(=O)N2C(=O)CCC2C(=O)Nc2ccccc2)cc1 (stereo not drawn) | 18.8

Continue with the molecule presented below.
For the molecule C=C(CN1CCc2ccccc2C1)c1ccc(C(=O)Nc2cccc(N)c2)cc1 , report TGI.
73.5

###

- System: BT-549 breast
- METHOD: NCI tumour cell line growth inhibition, 48 h
# TGI annotations

Provide TGI value for the following compound: O=c1[nH]c(-c2ccncc2)nc2sc3c(c12)CCCCCC3
> 100 µM

Dear colleague, please send me the reported TGI for CCOP(=O)(OCC)/C(F)=C/c1ccc(F)cc1 when you can.
> 100 µM

Look up and state reported TGI for CCn1nc(C#Cc2c(C)ccc3c(Nc4ccc(Cl)cc4)nccc23)c2c(N)ncnc21
> 100 µM

###

The following compounds are shown together with reported TGI values.
- System: MDA-MB-435
- METHOD: NCI tumour cell line growth inhibition, 48 h

COc1cc(N(CCC#N)CCC#N)ccc1/C(N=Nc1cccc([N+](=O)[O-])c1)=N\NC(=O)c1ccc(C)cc1 | > 100 µM
COc1ccc(CCN2C(=O)C(=O)C(C(=O)c3ccccc3)C2c2ccccc2)cc1OC (centres undefined) | > 100 µM
O=C(c1ccccc1)N1N=C(C(F)(F)F)CC1(O)C(F)(F)F (centres undefined) | > 100 µM

Consider the compound CC(=O)OC1=C(c2ccccc2)S(=O)(=O)c2ccccc21 . State its measured TGI.
> 100 µM

###

Consider the following compounds and their measured GI50 readings.
- Test system: SR leukemia
- METHOD: NCI tumour cell line growth inhibition, 48 h

Would you please look over these solved cases?
COc1cc(C(=O)N[C@@H]2CCCN(C)C2)ccc1Nc1ncc2c(n1)N(C1CCCC1)CC(C)(C)C(=O)N2C | 36.9 nM
CCOc1ccc(-c2nc3ccc(-c4nc5ccc(N6CCN(C)CC6)cc5[nH]4)cc3[nH]2)cc1OCC | 678 nM
N=C(N)c1ccc(-c2ccc(-c3cccs3)s2)cc1F | 341 nM

State, in one line, measured GI50 of COc1cc(-c2nn(-c3cccc(NC(=O)NCCNC(=O)c4ccccc4)c3)cc2-c2ccncc2)ccc1Cl
2420 nM

Give GI50 for CCCCCCCCCCCCNC(=O)N[C@H](C(=O)N[C@H]1/C=C/OCCNC(=O)/C=C/[C@H](C(C)C)NC1=O)C(C)C
393 nM

For the compound CC1(C)CC[C@]2(C(=O)O)CC[C@]3(C)C(=CC[C@@H]4[C@@]5(C)C/C(=C/c6cccnc6)[C@H](O)C(C)(C)[C@@H]5CC[C@]43C)[C@@H]2C1 , report GI50.
13200 nM

Quote GI50 reported for CN(C)c1ccc(-c2cc(-c3cccc(NS(C)(=O)=O)c3)nc(N)c2C#N)cc1 please.
35.9 nM

Identify measured GI50 associated with CCCN1CCCC(c2ccc(Nc3nc(Nc4cc(F)ccc4C(N)=O)c4cc[nH]c4n3)c(OC)c2)C1 (stereo not drawn)
11.2 nM

Identify GI50 associated with the compound CCc1ccc2cc3c(ccc4ccccc43)c3c2c1CC3
> 100000 nM

Supply GI50 value. Item: N#CSc1c[nH]c2cccc(/C=C/C(=O)/C=C(O)/C=C/c3cccc4[nH]cc(SC#N)c34)c12
129 nM

Note GI50 for the compound shown: COc1cc(/C=C2\C(=O)Nc3ccc(O)cc32)cc(OC)c1OC
1750 nM

Consider the compound CCC[CH2][Sn]1([CH2]CCC)[O]C(=O)c2cccnc2[S]1 . State its measured GI50.
1400 nM

Determine its reported GI50: CNC(=S)N/N=C/CSC/C=N/NC(=S)NC
799 nM

###

- Test system: SNB-19 CNS
- METHOD: NCI tumour cell line growth inhibition, 48 h; in the data active means GI50 below about 0.43 µM; inactive means the rest
Respond using exactly one of the listed classes: y (active), n (inactive)

COc1cc(C(=O)N[C@@H]2CCCN(C)C2)ccc1Nc1ncc2c(n1)N(C1CCCC1)CC(C)(C)C(=O)N2C | y
C=CN(C(=O)N1CCN(c2cc3c(cc2F)c(=O)c(C(=O)O)cn3C2CC2)CC1)c1nc(-c2ccc(C)cc2)cs1 | n
CCN(CC)c1ccc(C=C2C(=O)NC(=S)NC2=O)cc1 | n

// outcome(item) with item = CC1(C)CC[C@]2(C(=O)O)CC[C@]3(C)C(=CC[C@@H]4[C@@]5(C)C/C(=C/c6cccnc6)[C@H](O)C(C)(C)[C@@H]5CC[C@]43C)[C@@H]2C1
n

Hi, do you know how O=C(c1ccco1)c1c(C(F)(F)F)n([O-])c2cc(Cl)c(Cl)cc2[n+]1=O came out in this test?
n

// outcome(item) with item = OC1(c2ccccc2)c2ccccc2N(c2ccccc2)c2ccc(Cl)cc21 (configuration not stated)
y

Write down the call the test reported for this compound. Item: CNC(=S)N/N=C/CSC/C=N/NC(=S)NC
n

###

- Test system: NCI-H226 lung
- METHOD: NCI tumour cell line growth inhibition, 48 h; in the data active = GI50 below about 0.43 µM; inactive = the rest
Hi! Could you answer with just one of these? T (active), F (inactive)

COc1ccc(-c2cc(-c3ccc(Cl)cc3)c(C#N)c(=O)n2CCCCCC(=O)Nc2ccccc2N)cc1 | F
CCn1nc(C#Cc2c(C)ccc3c(Nc4ccc(Cl)cc4)nccc23)c2c(N)ncnc21 | F
CCCCCCCCCCCCNC(=O)N[C@H](C(=O)N[C@H]1/C=C/OCCNC(=O)/C=C/[C@H](C(C)C)NC1=O)C(C)C | F
CN(C)c1ccc(-c2cc(-c3cccc(NS(C)(=O)=O)c3)nc(N)c2C#N)cc1 | T
COc1cc2nc(NC3CCC3)nc(NC3CCN(C(C)C)CC3)c2cc1OC | F
CC(C)CC(=O)O[C@H]1C(=O)O[C@@H]2C[C@H]3[C@H](C)C(=O)C(O[C@@H]4O[C@H](CO)[C@@H](O)[C@H](O)[C@H]4O)=C[C@]3(C)[C@H]3[C@@H](O)[C@H](O)[C@]4(C(=O)O)OC[C@]32[C@@H]14 | F

# lookup: test call for CCN(CC)c1ccc(C=C2C(=O)NC(=S)NC2=O)cc1
F

Would you mind telling me which call this test gave N#CSc1c[nH]c2cccc(/C=C/C(=O)/C=C(O)/C=C/c3cccc4[nH]cc(SC#N)c34)c12 ?
F
